These measurements were taken from a melting point compilation (Tetko et al.; mined from patent text by program, amines drawn as free bases though some values may be those of a salt).

Reported melting point values for the following compounds.

Below, 10 compounds whose answers are already recorded.
compound: CCN1c2ncc(C#Cc3cccnc3)cc2C(=O)N(C)c2cccnc21
melting point: 178 to 180 °C
//
compound: O=[N+]([O-])c1oc2c(ccc3ccccc32)c1-c1ccc(Br)cc1
melting point: 230 to 233 °C
//
compound: O=C1NC(=O)C(=Cc2ccc3c(c2)CCC(Cc2ccc(OCc4ccccc4)cc2)O3)S1 (stereo unspecified)
melting point: 245 to 250 °C
//
compound: Cn1cc2c(C3CC3C#N)c(Br)ccc2n1 (stereo unspecified)
melting point: 154 to 156 °C
//
compound: CCCCOCCOc1ccc(-c2ccc3c(c2)C=C(C(=O)O)CCN3Cc2ccccc2)cc1
melting point: 133 to 138 °C
//
compound: CNC(=O)c1cc2ccc3c(c2c(-c2ccc4c(c2)OCO4)c1CO)OCO3
melting point: 233 to 235 °C
//
compound: CC(C)(Cn1cnc2c(N)nc3ccccc3c21)OCCS(C)(=O)=O
melting point: 261 to 264 °C
//
compound: COc1ccc2cc(C3(O)CN4CCC3CC4)ccc2c1 (racemic)
melting point: > 330 °C
//
compound: COc1ccc2c(cccc2[C@H]2CO[C@H](CCCNC(=O)OCC(=O)NC3CC3)OC2)c1
melting point: 176 °C
//
compound: CC(C)Cc1cc(C(=O)N2CCN(CC(C)C)CC2)ccc1OCc1ccc(F)cc1
melting point: 77 to 78 °C

Query: For NC(=S)Nc1cc(Cl)cc(Cl)c1 , what is its reported melting point?
Response: 180 °C

Query: Next: Sc1nncn1Cc1ccccc1
Response: 124 to 125 °C

Query: Next: Cn1c2c(c3c(Cl)cccc31)CCOC2(C)CC(=O)O (stereo unspecified)
Response: 105 to 110 °C

Query: Next: COc1c(F)ccc2c1C(=O)N1CC[C@H]1c1c(-c3noc(CN)n3)ncn1-2
Response: 196 to 198 °C
